assay: Components of the Cytosolic LPS Sensing Pathway: Gene Identification via Genome-wide siRNA Screen; settings: RAW264.7 macrophages, IL-1a HTRF, actives lie on both sides, screened at 100 nM (by protocol), cells primed 5 h with Pam3CSK4 first;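 note: robust z of the log signal after scaling to non-targeting control siRNA wells of the plate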
Among all 53,000 sequences or so, about 3,700 (7%) were called active.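 Rule for the calls: active = gene knockdowns whose robust z-score for IL-1 alpha signal is at least 2 or at most -2, so actives lie on both sides; inactive = the rest.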 This excerpt belongs to a sample that is enriched for actives.
Outcomes: 1 = active, 0 = inactive

{"columns": ["sequence_data", "assigned_label"],
 "data": [
  ["CGUACAUCAGAAUGUUAAUTT against Fkbp4", 0],
  ["GGAGAUGGACUCACUGAUGTT against Zscan20", 0],
  ["GGACCUGUGUGUUCUUUGATT against Amhr2", 0],
  ["CCUUUACACCACUCUAUUUTT against Adgb", 0],
  ["CCUACACUAAAAUUCACCATT against Muc15", 0],
  ["GGUAACAAGAGGUCUAGCATT against P2ry1", 1],
  ["CCAUUGUAGUCAGUCAAAUTT against Pip", 0],
  ["GCAGAUAUUUUUGUAAGCATT against Csmd1", 0],
  ["GCCUCUUAUUUGGUUACGATT against Best3", 0],
  ["GCUAUCCCUUUAUGUAACATT against Prl7b1", 0],
  ["GGCAAGAAAGGACCAAUGGTT against Cln8", 0],
  ["GGAAACUUCAGACUAGUCATT against Eif2s3y", 0]
]}

###

experiment: Components of the Cytosolic LPS Sensing Pathway: Gene Identification via Genome-wide siRNA Screen; settings: RAW264.7 macrophages, IL-1a HTRF, actives lie on both sides, screened at 100 nM (by protocol), cells primed 5 h with Pam3CSK4 first;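 note: robust z of the log signal after scaling to non-targeting control siRNA wells of the plate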
About 3,700 (7%) of roughly 53,000 sequences were called active. The entries come from a sample that favours actives as a whole.
z-score strictly under 0.03 means 1; at 0.03 or over means 0.

{"columns": ["sequence_data", "assigned_label"],
 "data": [
  ["GGAGAAUAAGCAAAUCCUUTT against Cfap20dc", 1],
  ["GGCUAAAACAGGAAAUCUGTT against Mip", 1],
  ["GGCUGUGCUACAGUUUCUCTT against Get4", 1],
  ["CCAGAGCCCAAGCCAAGUUTT against Nanos3", 0],
  ["GCUAGAUGUAGAUAGAUAATT against Plekhm3", 1],
  ["GCCGGAUAACAUCAGACACTT against Rmnd1", 1],
  ["GGAUGAAUGCAGCUUCCAUTT against Myh14", 0],
  ["GGAUUAUGAUUUGCCUGAUTT against 4932414N04Rik", 0],
  ["CGAUUCAUUCAGUUUGUAATT against Terb1", 1],
  ["CUGAUCCUUCAAUUAACAUTT against Olfr202", 0],
  ["GGACCUCAACAUCCAGAGATT against Sema6b", 1],
  ["GCUACGUAAACGGAAGGCUTT against Abraxas1", 0]
]}

###

test: Components of the Cytosolic LPS Sensing Pathway: Gene Identification via Genome-wide siRNA Screen; settings: RAW264.7 macrophages, IL-1a HTRF, actives lie on both sides, screened at 100 nM (by protocol), cells primed 5 h with Pam3CSK4 first;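 note: robust z of the log signal after scaling to non-targeting control siRNA wells of the plate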
In all, about 53,000 sequences went through this assay and about 3,700 (7%) were called active. This excerpt belongs to a sample that is enriched for actives.
value_type: z-score

{"columns": ["sequence_data", "value_type", "recorded_measurement"],
 "data": [
  ["GGUCAACAGAAUGAAAAAUTT against Runx1t1", "z-score", "-0.211 (inactive)"],
  ["UAACAGACCAGUAAAGGCCTT against Klra21", "z-score", "0.322 (inactive)"],
  ["GGAGAAAGACCAUUACUGUTT against Ly6e", "z-score", "1.63 (inactive)"],
  ["GGUCUGUAUGUCAUUUAUCTT against Ywhag", "z-score", "-0.208 (inactive)"],
  ["UUUAAGGAUCUCGUGCGAATT against Olfr809", "z-score", "-0.12 (inactive)"],
  ["GGCACAGAGAACAAUACUUTT against Npy5r", "z-score", "-0.128 (inactive)"],
  ["GGCUGAAAAACUCAAUUAUTT against Boll", "z-score", "-0.813 (inactive)"],
  ["GCUUUAGGUAUGGUCCUAATT against A430072C10Rik", "z-score", "1.23 (inactive)"],
  ["GGCUAUUAACAUCUCAGUUTT against Rhbdd1", "z-score", "0.0309 (inactive)"],
  ["GGUGUCAUGAUGGAGCUGATT against Crygc", "z-score", "0.862 (inactive)"],
  ["CCUGCUAAUGUUUGUAAGUTT against Sowahc", "z-score", "1.37 (inactive)"],
  ["CGAUGAGCUAAGAGAGUCCTT against Cand2", "z-score", "3.09 (active)"],
  ["GCCUGUUGCUAUGAAUGGUTT against Zfp597", "z-score", "-0.353 (inactive)"],
  ["GGAAAAGGAGGUGGUACUGTT against Acan", "z-score", "0.743 (inactive)"],
  ["GGGAAGGAUGACCUAACAATT against Gpatch4", "z-score", "-0.839 (inactive)"],
  ["GGAUGAGAGGUAAAGUAACTT against Nptxr", "z-score", "0.802 (inactive)"],
  ["GCGCAAUGACGAUAAACUCTT against Sema3f", "z-score", "0.534 (inactive)"],
  ["GGCUACUGUAGGAAGAAAUTT against Defb20", "z-score", "1.7 (inactive)"],
  ["GGUCCUCCCAUAAUCUAGUTT against Lrrc75a", "z-score", "1.18 (inactive)"],
  ["GCCCUAUCUACGAUGAAAATT against Scamp2", "z-score", "-0.197 (inactive)"],
  ["GCUCUAUGGAGACCUAAAGTT against Sdha", "z-score", "-0.378 (inactive)"],
  ["GGGAGAGAGUUGGCUCUGATT against Prg3", "z-score", "-0.184 (inactive)"],
  ["GGGACAAUGUACAUCUACUTT against Dnaaf6b", "z-score", "-0.199 (inactive)"],
  ["GGUUUCACAUUCAUCAACUTT against Ccdc14", "z-score", "-1.02 (inactive)"],
  ["GGGUCUAGAGUGCAUCUUCTT against Krt78", "z-score", "0.418 (inactive)"]
]}
